Provenance of the data: ChEMBL document CHEMBL1759904

# Tested on: HeLa
# Measurement Protocol: Cytotoxicity against human HeLa cells after 24 hrs by calcein AM based spectrophotometric analysis
# Type: cell-based

{"Input Smiles": "O=C(O)[C@@H]1CSc2c(C3CC3)c(Cc3cccc4ccccc34)cc(=O)n21", "Activity": "Non-toxic"}
{"Input Smiles": "O=C(O)[C@@H]1CSc2c(-c3cccc(C(F)(F)F)c3)c(Cc3ccc4[nH]ccc4c3)cc(=O)n21", "Activity": "Non-toxic"}
{"Input Smiles": "O=C(O)[C@@H]1CSc2c(C3CC3)c(Cc3cccc(OCc4ccc(F)cc4)c3)cc(=O)n21", "Activity": "Non-toxic"}
